Cited source for all entries: patent US11746116B2

Test system: VRE12204
test.description: MIC, microdilution broth method
Format: cell-based, Enterococcus faecium
condition.label: ESKAPE panel, Gram-positive; in µg/mL
MIC, VRE12204 overview
Write the value as a bare number.

Illustrative cases are given below, each with its answer.
C[C@H]1COc2c(N3CCC(Nc4ncccn4)C3)c(F)cc3c(=O)c(C(=O)O)cn1c23 (stereo partly drawn)	4
C[C@H]1COc2c(N3CC[C@@H](Nc4ncccn4)C3)c(F)cc3c(=O)c(C(=O)O)cn1c23	1
C[C@H]1COc2c(N3CC[C@@H](Nc4ncc(F)cn4)C3)c(F)cc3c(=O)c(C(=O)O)cn1c23	1

Tell me its MIC, VRE12204 given C[C@H]1COc2c(N3CCC(N4CCN(C)CC4)C3)c(F)cc3c(=O)c(C(=O)O)cn1c23 (stereo partly drawn) as the entry. 8

Tell me its MIC, VRE12204 given Cc1cc(N2CCN(c3c(F)cc4c(=O)c(C(=O)O)cn5c4c3OC[C@@H]5C)CC2)nc(C(C)C)n1 as the entry. 8

Tell me its MIC, VRE12204 given C[C@H]1COc2c(N3CC[C@@H](N(C)C4CC4)C3)c(F)cc3c(=O)c(C(=O)O)cn1c23 as the entry. 8
